- Tested on: Dd2
- protocol details: Cross-resistance EC50 assay, Dd2 parent
- Format: cell-based, Plasmodium falciparum
- test conditions: Plasmodium falciparum, DD2, 72 h, read-out: Dd2 (PARENT) Average EC50
recorded metric: log10(EC50) (log10 of the value in nM)
Response schema: value (number) is log10 of EC50 in units of nM.

Answered cases to consult:
CCC(C)NCC(O)(c1ccc(Cl)cc1)c1ccc(Cl)cc1 (stereo not drawn) [MMV665928]
2.63
CN(C)Cc1ccc(-c2cc3c(-c4ccc(CN(C)C)cc4)ccnc3[nH]2)cc1.O=C(O)C(F)(F)F [MMV022224]
2.61
COc1cc(-c2nc(-c3ccccc3)c(-c3ccccc3)[nH]2)ccc1OCCN(C)C [MMV027496]
2.48
Cl.c1ccc2c(NCCCCCCNc3c4c(nc5ccccc35)CCCC4)c3c(nc2c1)CCCC3 [MMV019555]
2.37
CN(C)S(=O)(=O)c1cc(-c2ccc3nccc(-c4cccc(S(N)(=O)=O)c4)c3c2)cnc1N [MMV024038]
2.03

Please list log10(EC50) recorded for the molecule CCCOCc1cc(CN2CCN(c3cccc(Cl)c3)CC2)c(O)c2ncccc12 [MMV000787]
2.77

// Input: Cc1c(C)n(Cc2ccc(F)cc2)c2ccc(C(=O)NCc3ccco3)cc12 [MMV008149] . Output its log10(EC50) only.
1.95

For the molecule COc1cc2cc(C(=O)Nc3ccccc3)c(N)nc2cc1OC [MMV006767] , report log10(EC50).
3.20

Please give the documented log10(EC50) of CCCCCCCN(Cc1ccc(OC(C)(C)C(=O)OCC)cc1)C(=O)Nc1ccc(Cl)cc1OCC [MMV021735]
2.41

* * *

- Test system: ProRS (prolyl t-RNA synthetase L482H, parent Dd2)
- protocol details: Cross-resistance EC50 assay, ProRS
- Assay type: cell-based
- test conditions: Plasmodium falciparum; SYBR green 72 hour assay; synchronized parasites; 384-well format; strain ProRS (Dd2 parent)
recorded metric: pEC50
Scale: pEC50 equals -log10([C]), with [C] in mol/L.

Would you please look over these solved cases?
COc1cc(C(=O)ON=C(N)Cc2cccc3ccccc23)cc(OC)c1OC [MMV666687]
6.49
COCCNCC(O)Cn1c2ccc(Cl)cc2c2cc(Cl)ccc21 (stereo not shown) [MMV019017]
6.47

Quote pEC50 reported for CN1CCN(c2ccc(Nc3c4ccccc4nc4ccccc34)cc2)CC1 [MMV006172] please.
6.90

Give the reported pEC50 for this molecule. CCOc1cc2c(cc1OCC)C(c1cc(Cl)ccc1O)NCC2 (stereo not shown) [MMV000478]
6.21

* * *

- Test system: GNF156R (PfCARL L830V, S1076I and M81I, parent Dd2)
- protocol details: Cross-resistance EC50 assay, GNF156R
- Format: cell-based
- test conditions: Plasmodium falciparum, SYBR green 72 hour assay, asynchronized parasites, 96-well or 1536-well format
recorded metric: log10 EC50 (log10 of the value in µM)
// stored as log10 of EC50 expressed in µM

// fetch log10 EC50 given entry CN(C)Cc1ccc(-c2cc3c(-c4ccc(CN(C)C)cc4)ccnc3[nH]2)cc1.O=C(O)C(F)(F)F
-0.37

Could you please provide reported log10 EC50 for CN(C)S(=O)(=O)c1cc(-c2ccc3nccc(-c4cccc(S(N)(=O)=O)c4)c3c2)cnc1N ? Thanks!
-0.06

Indicate the recorded log10 EC50 value for this compound: CC(C)(C)OC(=O)N1CCN(c2ccccc2NC(=O)c2cccc(C(F)(F)F)c2Oc2ccc(F)cc2)CC1
-0.44

* * *

Parameter pEC50: see the listing below.
- Test system: ProRS (prolyl t-RNA synthetase L482H, parent Dd2)
- protocol details: Cross-resistance EC50 assay, ProRS
- Format: cell-based
- test conditions: Plasmodium falciparum; SYBR green 72 hour assay; synchronized parasites; 384-well format; strain ProRS (Dd2 parent)
Scale for pEC50: -log10 of concentration given in mol/L; no unit attached.

Below are worked cases with known answers.
Nc1ccc(-c2nc3cc(Oc4ccc(Oc5ccc6[nH]c(-c7ccc(N)cc7)nc6c5)cc4)ccc3[nH]2)cc1
6.63
OC(CNC1CCCCC1)Cn1c2ccccc2c2ccccc21 (centres unmarked)
6.84

Given OC(CNC1CCCCC1)Cn1c2ccc(I)cc2c2cc(I)ccc21 (centres unmarked) , respond with its pEC50.
7.60

Fill in pEC50 for record CCCOCc1cc(CN2CCN(c3cccc(Cl)c3)CC2)c(O)c2ncccc12
6.32

In one line, give reported pEC50 of the entry CCCCCCCN(Cc1ccc(OC(C)(C)C(=O)OCC)cc1)C(=O)Nc1ccc(Cl)cc1OCC .
6.57

* * *

- Test system: Dd2
- protocol details: Cross-resistance EC50 assay, Dd2 parent
- Type: cell-based, Plasmodium falciparum
- test conditions: Plasmodium falciparum, DD2, 72 h, read-out: Dd2 (PARENT) Average EC50
recorded metric: log10 EC50 (log10 of the value in nM)
The base-10 logarithm of EC50, taken with EC50 in nM, is what appears here.

Nc1ncc(-c2cn[nH]c2)cc1-c1nc2ccc(F)cc2[nH]1 [MMV023367]
2.82
COc1ccc(NC(=O)N2CCCCN3[C@H](CN)[C@H](c4ccc(C#Cc5ccccc5)cc4)[C@@H]3C2)cc1 [BRD1095]
1.11
COc1ccc(C(=O)C2CC2c2ccc(Cl)cc2)cc1 (stereo not shown) [MMV665924]
3.08
CCOc1cc2c(cc1OCC)C(c1cc(Cl)ccc1O)NCC2 (stereo not shown) [MMV000478]
2.90
Brc1ccc(Nc2nc3ccccc3nc2Nc2ccc(Br)cc2)cc1 [MMV007224]
2.44
CNCc1ccc2nc(-c3coc(Cc4cc(Cl)ccc4OCC(C)C)n3)[nH]c2c1.Cl.Cl [MMV026596]
2.54

For the next question, use this compound.
Supply recorded log10 EC50 for O=C(Nc1ccc(Cl)c(Cl)c1)Nc1ccc(Cl)c(Cl)c1 [MMV665852] here.
2.95

* * *

- System: GNF156R (PfCARL L830V, S1076I and M81I, parent Dd2)
- protocol details: Cross-resistance EC50 assay, GNF156R
- Assay type: cell-based
- test conditions: Plasmodium falciparum, SYBR green 72 hour assay, asynchronized parasites, 96-well or 1536-well format
Classify: true (1) when EC50 is strictly less than 0.8 µM; false (0) when EC50 is not.

Answer whether the molecule CCC(C)NCC(O)(c1ccc(Cl)cc1)c1ccc(Cl)cc1 (stereo not shown) has EC50 strictly less than 0.8 µM
true (1)

Given the entry CN1CCN(c2ccc(Nc3c4ccccc4nc4ccccc34)cc2)CC1 , would its reported EC50 be below 0.8 µM?
true (1)

* * *

pEC50 overview
- Test system: ProRS (prolyl t-RNA synthetase L482H, parent Dd2)
- protocol details: Cross-resistance EC50 assay, ProRS
- Type: cell-based
- test conditions: Plasmodium falciparum; SYBR green 72 hour assay; synchronized parasites; 384-well format; strain ProRS (Dd2 parent)
In textbook form, pEC50 equals minus log to base ten of the concentration in mol/L.

Below: 5 compounds and their reported pEC50.
Cc1ccc(Cn2c(N3CCC(C(=O)NCc4cccs4)CC3)nc3ccccc32)cc1 [MMV007564]
6.38
Cc1ccc(Oc2ncccc2C(=O)Cc2cccc3cccnc23)c(C)c1 [MMV020746]
6.56
CCC(C)NCC(O)(c1ccc(Cl)cc1)c1ccc(Cl)cc1 (stereo not drawn) [MMV665928]
6.44
CC(NCc1ccccc1)c1cc(Cl)ccc1O (stereo not drawn) [MMV665789]
6.48
O=C(NC(c1ccccc1)c1ccc2cccnc2c1O)c1ccccc1 (stereo not drawn) [MMV666080]
6.24

Read off the recorded pEC50 for COc1cc2cc(C(=O)Nc3ccccc3)c(N)nc2cc1OC [MMV006767]
5.76

Retrieve pEC50 measured for COc1cc(-c2nc(-c3ccccc3)c(-c3ccccc3)[nH]2)cc(OC)c1O [MMV020750] and print it.
6.04

Answer with reported pEC50 of CNCc1ccc2nc(-c3coc(Cc4cc(Cl)ccc4OCC(C)C)n3)[nH]c2c1.Cl.Cl [MMV026596]
6.46

Quote pEC50 reported for COc1ccc(C(=O)C2CC2c2ccc(Cl)cc2)cc1 (stereo not drawn) [MMV665924] please.
6.02

Report pEC50 for O=C(Nc1ccc(Cl)c(Cl)c1)Nc1ccc(Cl)c(Cl)c1 [MMV665852]
6.15

Please list pEC50 recorded for the compound O=C(Nc1ccsc1C(=O)NC1CCCCC1)c1ccc(F)cc1 [MMV665939]
5.62

Specify pEC50 for CN(C)S(=O)(=O)c1cc(-c2ccc3nccc(-c4cccc(S(N)(=O)=O)c4)c3c2)cnc1N [MMV024038] and stop.
6.84

Return value of pEC50 for input CC(C)(C)OC(=O)N1CCN(c2ccccc2NC(=O)c2cccc(C(F)(F)F)c2Oc2ccc(F)cc2)CC1 [MMV030666] , no commentary.
6.55

Let me know recorded pEC50 for COc1ccc(-c2nc(NC(=O)Cc3ccc4c(c3)OCCO4)sc2C)cc1 [MMV019719] , thanks.
6.61

// Input: COc1cc(-c2nc(-c3ccccc3)c(-c3ccccc3)[nH]2)ccc1OCCN(C)C [MMV027496] . Output its pEC50 only.
6.51

Read the entry COc1ccccc1CNC(=O)CCn1c(=O)[nH]c2ccsc2c1=O [MMV019066] and write its reported pEC50.
7.38
